// provenance: a melting point compilation (Tetko et al.; mined from patent text by program, amines drawn as free bases though some values may be those of a salt)

Measured melting point of individual entries

{"compound": "O=[N+]([O-])c1ccc(OCCN2CC=C(c3ccc(F)cc3)CC2)cc1", "melting point": "104 to 107 °C"}
{"compound": "CCCCCCCCC(SCCCC)C(=O)Nc1cccc2cnccc12 (stereo not given)", "melting point": "73 to 75 °C"}
{"compound": "CC(=O)SC(CC(=O)c1ccc(Oc2ccccc2)cc1)C(=O)O (stereo not given)", "melting point": "106 °C"}
{"compound": "CCCN(CCC)C(C)C(=O)Nc1cccc2c1C(=O)c1c(NC(=O)C(C)N(CCC)CCC)cccc1C2=O (stereo not given)", "melting point": "129 to 130 °C"}
{"compound": "CCCCSCC(=O)c1ccc2c(c1)n(C)c(=O)n2C", "melting point": "80 to 81 °C"}

###

{"compound": "CCSc1nc(N2CCNCC2)nc2cccnc12", "melting point": "98 to 101 °C"}
{"compound": "NN(C(=O)c1c(F)cccc1Cl)c1ccccc1C(F)(F)F", "melting point": "147 to 148 °C"}
{"compound": "CC(C)(Oc1ccc(Cl)cc1)C(=O)C(Oc1cccc(Cl)n1)n1cncn1 (stereo not given)", "melting point": "100 °C"}
{"compound": "Cc1ccc(NC(=O)c2ccc(C(=O)Nc3ccccc3N)nc2)cc1Nc1nccc(-c2cccnc2)n1", "melting point": "150 to 152 °C"}
{"compound": "CCOC(=O)N1CCC2CN(c3c(F)cc4c(=O)c(C(=O)O)cn(C5CC5)c4c3F)CC21 (stereo not given)", "melting point": "191 to 192 °C"}

###

Each entry below carries its reported melting point.

{"compound": "COc1ccc(-n2nc3c(cc2=O)CCSc2sc(C)cc2-3)cc1", "melting point": "145 to 146 °C"}
{"compound": "CCCN(CCC)CCOc1ccc(Cn2c(-c3ccc(O)cc3)c(C)c3cc(O)ccc32)cc1", "melting point": "83 to 86 °C"}
{"compound": "Nc1ncc(Cc2cccc(-c3ccccc3)c2)c(N)n1", "melting point": "108 to 115 °C"}
{"compound": "COc1cc(C(C)=O)ccc1OCCCN1CCN(c2csc3cc(F)ccc23)CC1", "melting point": "172 to 174 °C"}
{"compound": "Cc1nc(-c2ccc(OCC(C)(C)C)c(I)c2)sc1C(=O)O", "melting point": "194 to 195 °C"}
{"compound": "CC(=O)N1c2c(ccn3c(C)c(C)nc23)C(=O)[C@H](OC(=O)C(C)(C)C)[C@H]1c1ccccc1", "melting point": "168 to 170 °C"}
{"compound": "CCCn1c(COCC)nc2c(N)nc3ccc(OC(=O)N4CCOCC4)cc3c21", "melting point": "193 to 196 °C"}
{"compound": "CCOC(=O)CCCOc1ccc(C(=O)Nc2ccccc2S(=O)(=O)c2ccccc2-c2nnn[nH]2)cc1", "melting point": "182 to 184 °C"}
{"compound": "COc1ccc(C2Nc3ccc(Cl)cc3C(C#CC3CC3)(C(F)(F)F)O2)cc1 (centres undefined)", "melting point": "130 to 132 °C"}
{"compound": "CCCCc1ncc(CC(Cc2ccccc2)C(=O)O)n1Cc1ccc(C(=O)O)cc1 (centres undefined)", "melting point": "120 to 124 °C"}
{"compound": "COC(=O)CNc1cccc(C(N)=O)c1", "melting point": "146 to 147 °C"}
{"compound": "CC(C)Nc1cccnc1N1CCN(C(=O)c2ccc(C(=O)N3CCN(C4CCCC4)CC3)cc2)CC1", "melting point": "181 to 182 °C"}
{"compound": "COc1ccc(C2C(C(=O)c3ccc(C)cc3)=C(O)C(=O)N2c2ccc(C)nn2)cc1 (centres undefined)", "melting point": "266 °C"}
{"compound": "COC(=O)Cc1cc(C(=O)c2ccc3cc(-c4ccccc4)[nH]c3c2)sc1-c1ccccc1", "melting point": "183 to 185 °C"}
{"compound": "O=C1N(Cc2ccc3ccccc3c2)c2ccccc2N=C2CCCC12Cc1ccc2ccccc2c1 (centres undefined)", "melting point": "191 to 193 °C"}
{"compound": "CCCCCCCCCCCCCCCCCCCCCC(=O)OCC1CC1", "melting point": "44 °C"}
{"compound": "CCCCN1CCn2c1nc(C(=O)NCc1ccc(F)cc1-n1cnc(C)n1)c(OCc1ccccc1)c2=O", "melting point": "172 to 173 °C"}
{"compound": "O=c1c(Cl)c(OCc2ccc(Cl)cc2)cnn1CCCBr", "melting point": "83 to 87 °C"}
{"compound": "COCCCC(=O)c1cc(C(=O)O)c2cc(Cc3ccc(F)cc3)cnc2c1O", "melting point": "226 to 228 °C"}
